Attribution: PubChem BioAssay

# Test system: Lefty1
# Test Details: Lefty1 binders on small-molecule microarrays, primary screen, biochemical, small-molecule microarray, 635/667 nm fluorescence (AID 1139)
# Protocol Conditions: small-molecule microarray binding, fluorescence 635/667; higher = more signal
Below, each entry is listed alongside its reported composite z-score.
I only need the number, thanks.

What composite z-score value was documented for this molecule, COCCOC(=O)N1C(=O)[C@@]2(c3cc(C#CCC(C(=O)OC)C(=O)OC)ccc31)[C@H](C(=O)N1CCc3cc(OC)c(OC)cc3C1)[C@H]1C(=O)O[C@H](c3ccccc3)[C@H](c3ccccc3)N1[C@@H]2c1ccc(O)cc1 ?
1.11

---

Below, each entry is listed alongside its reported z-score.
# Test Details: MM1S myeloma cell viability, profiling panel, resazurin fluorescence, basal, 24 h, PK04 Diversity Set (AID 1174);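 note: MM1S multiple myeloma cell line; test concentration not given here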
# Protocol Conditions: higher = more signal, called active from +8 up or from −8 down
Calls of active or inactive are those of the source.

These recorded examples may help you get a feel for the data.
{"Molecule": "CC(C)c1ccc(NN2C(C(O)C(C)C)C=CC3C(=O)N(c4ccccc4)C(=O)C32)cc1 (configuration not stated)", "z-score": "-0.331 (inactive)"}
{"Molecule": "COCCn1c(C(=O)N2CCCC2)cc2c1C[C@H]1CN(C(=O)c3ccccc3)[C@@](Cc3ccccc3)(C(=O)OC)[C@@H]21", "z-score": "-0.738 (inactive)"}
{"Molecule": "COc1ccc(NN2C(C(O)c3ccc(OC)cc3)C=CC3C(=O)N(C4CCCCC4)C(=O)C32)cc1 (configuration not stated)", "z-score": "0.363 (inactive)"}
{"Molecule": "Cc1c(-c2ccc(-c3ccc(Cl)c(Cl)c3)o2)nc(-c2ccccc2)c2c1CO[Si]2(C(C)C)C(C)C", "z-score": "-2 (inactive)"}
{"Molecule": "CCCCC(=C=CC[C@@H](O)c1ccc(OCCO)cc1)C[C@@H](O)c1ccccn1", "z-score": "-0.769 (inactive)"}

What z-score value was documented for this molecule, COC(=O)[C@@]1(CCS(=O)(=O)c2ccccc2)N=C(c2ccc(OCCCO)cc2)O[C@H]1c1ccccc1N=[N+]=[N-] ?
-2.87 (inactive)

Try this molecule too: COc1ccc([Si](C)(C)[C@H]2[C@H](CC(=O)N3Cc4ccccc4C[C@H]3CO)O[C@@]3(C(=O)N(Cc4cccc(N5C(=O)c6cccc7cccc5c67)c4)c4ccccc43)[C@@H]2C)cc1
-2.76 (inactive)
